Cited source for all entries: ChEMBL document CHEMBL3872244

molecular target: Pancreatic triacylglycerol lipase (Sus scrofa, UniProt P00591)
pIC50: −log10 of the molar value.
endpoint.name: pIC50

(P) CCn1c2ccccc2c2cc(C(=O)C(=O)Nc3ccccc3)ccc21
(Q) O=C(Nc1ccccc1)C(=O)c1ccc2c(c1)c1ccccc1n2Cc1ccc(Cl)cc1
Ask | // compare: P vs Q , metric pIC50, want the smaller When you have decided, please share the label of that item.
Reply | P
(P: 4.62, Q: 4.86)

* * *

Target: Pancreatic triacylglycerol lipase (Sus scrofa)
Sequence (P00591 whole entry): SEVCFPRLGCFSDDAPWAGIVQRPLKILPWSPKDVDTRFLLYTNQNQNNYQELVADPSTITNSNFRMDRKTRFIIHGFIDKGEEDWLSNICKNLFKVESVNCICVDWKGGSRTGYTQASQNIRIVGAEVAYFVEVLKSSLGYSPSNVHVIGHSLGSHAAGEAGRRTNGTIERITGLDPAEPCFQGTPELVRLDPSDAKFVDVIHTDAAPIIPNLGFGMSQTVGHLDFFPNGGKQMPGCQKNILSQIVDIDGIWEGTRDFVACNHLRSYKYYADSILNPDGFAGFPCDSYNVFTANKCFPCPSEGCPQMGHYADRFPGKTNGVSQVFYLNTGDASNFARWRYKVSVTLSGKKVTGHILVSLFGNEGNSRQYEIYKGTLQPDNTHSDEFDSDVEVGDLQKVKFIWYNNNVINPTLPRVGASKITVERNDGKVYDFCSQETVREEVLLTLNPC
Test: Competitive inhibition of porcine pancreatic lipase 4-nitrophenyl butyrate substrate preincubated for 30 mins followed by substrate addition measured after 5 mins by Dixon plot method
endpoint.name: pKi
// field semantics: pKi = negative decimal log of concentration (mol/L)

Ask | Find the recorded pKi belonging to COc1cc(NC(=O)C(=O)c2ccc3[nH]c4ccccc4c3c2)cc(OC)c1OC and report it.
Reply | 4.67
